- system.tested: T1, EsCas13d, nuclease-dead (Eubacterium siraeum, UniProt B0MS50, R295A;H300A;R849A;H854A)
- T1 sequence: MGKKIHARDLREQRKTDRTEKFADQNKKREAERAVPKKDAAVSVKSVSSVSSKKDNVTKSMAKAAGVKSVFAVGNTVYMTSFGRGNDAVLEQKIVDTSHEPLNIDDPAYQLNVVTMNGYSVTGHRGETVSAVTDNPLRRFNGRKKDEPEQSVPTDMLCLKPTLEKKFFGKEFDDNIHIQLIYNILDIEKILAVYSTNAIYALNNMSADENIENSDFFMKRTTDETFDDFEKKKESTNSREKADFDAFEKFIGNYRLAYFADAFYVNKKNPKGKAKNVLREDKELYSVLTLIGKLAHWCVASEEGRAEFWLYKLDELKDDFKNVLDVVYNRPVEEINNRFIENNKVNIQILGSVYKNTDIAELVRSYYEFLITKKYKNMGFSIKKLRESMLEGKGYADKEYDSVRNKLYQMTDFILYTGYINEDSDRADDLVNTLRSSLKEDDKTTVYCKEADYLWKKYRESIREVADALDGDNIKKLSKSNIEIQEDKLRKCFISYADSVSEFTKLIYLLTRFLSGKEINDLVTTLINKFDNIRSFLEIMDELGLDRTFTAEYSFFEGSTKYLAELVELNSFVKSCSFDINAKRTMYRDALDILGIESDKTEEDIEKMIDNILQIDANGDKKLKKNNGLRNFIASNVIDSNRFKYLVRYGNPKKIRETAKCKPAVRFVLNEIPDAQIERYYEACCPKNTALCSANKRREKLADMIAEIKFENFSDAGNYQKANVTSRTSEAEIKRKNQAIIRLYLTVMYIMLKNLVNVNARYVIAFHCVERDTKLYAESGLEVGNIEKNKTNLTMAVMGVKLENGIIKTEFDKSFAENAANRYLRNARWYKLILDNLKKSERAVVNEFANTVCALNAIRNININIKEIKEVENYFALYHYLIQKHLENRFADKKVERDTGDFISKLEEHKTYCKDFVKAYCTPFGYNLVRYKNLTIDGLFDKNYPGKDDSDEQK
- experimental.protocol: crRNA (strand 1, pre-loaded); Mg2+; 40 mM Tris-HCl pH 7.5, 150 mM NaCl, 6 mM MgCl2, 1 mM DTT, 0.1% Tween-20, 0.2 mg/ml BSA; 25 C; 10 min per concentration, then washed
- study.conditions: tags: His6-TwinStrep-SUMO cleaved; N-terminal SNAP kept (SNAP-Surface 488); label: 3' end held by stalled T7 RNA polymerase
measured.property: Kd (µM)
One number for each entry, in µM.

INSERT INTO measurements (binder, units_of_measure, test_value) VALUES
  ('target 3 insA 3'' of 2 (mixed) RNA 1: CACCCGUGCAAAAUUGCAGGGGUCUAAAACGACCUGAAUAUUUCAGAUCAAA RNA 2: GGGAAUGGAUCCACAUCUACGAAUUCGUUUUUGAUCUGAAAUAUUCAGGUACUGCAGAUCGGAAGAGCACACGU', 'µM', 0.0302);

Attention now shifts to the item below.
Qu. Tell me the measured Kd of target 1 MT 5'PFS GCA 3'PFS AAU (mixed) RNA 1: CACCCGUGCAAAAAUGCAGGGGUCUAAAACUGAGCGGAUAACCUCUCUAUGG RNA 2: GGGAAUGGAUCCACAUCUACGAAUUCGCACCAUAGAGAGGUUAUCCGCUCAAAUAGAUCGGAAGAGCACACGU , please.
Ans. 0.0415
